- System: LXFL 529 NSCLC
- PROCEDURE_DETAILS: NCI tumour cell line growth inhibition, 48 h
QUANTITY: TGI

Q: For "O=c1ccc(=O)c2c(=O)c3ccccc3c(=O)c1=2" , what is its reported TGI?
A: > 100 µM

Q: Next molecule: "Cc1c2cc[n+](C)cc2c(C)c2c1[nH]c1ccc(O)c(OCC(F)(F)F)c12"
A: 8.16 µM

Q: Next molecule: CCOC(=O)CC1NC(=O)CS1 (stereo unspecified)
A: > 100 µM

Q: Next molecule: "O=Cc1ccc(-c2cccs2)s1"
A: 4.51 µM

Q: Next molecule: CC(=O)O[C@@H]1C2C(=O)OC(=O)C2C2CCC[C@]23O[C@H]13 (stereo partly specified)
A: > 100 µM

Q: Next molecule: CC(=O)OC1[C@H]2c3cc4c(cc3CN3CCC(=C[C@@H]1O)C23)OCO4 (stereo partly specified)
A: > 100 µM

Q: Next molecule: Cc1c(Cl)cccc1NC(=O)CC1C(=O)Nc2ccccc2S1(=O)=O (stereo unspecified)
A: 29 µM

Q: Next molecule: "C[N+]1(C)C/C(=C\c2ccncc2)C(=O)/C(=C/c2ccncc2)C1"
A: > 100 µM

Q: Next molecule: "S=c1nc(-c2cccnc2)[nH][nH]1"
A: > 100 µM

Q: Next molecule: N#CC(NNC(=O)c1ccccc1O)c1cccc(O)c1 (stereo unspecified)
A: > 100 µM

Q: Next molecule: CCOC(=O)[C@H]1Nc2ccc(OC)cc2C2c3ccccc3CC21 (stereo partly specified)
A: > 100 µM

Q: Next molecule: "CC[C@@]1(O)C(=O)OCc2c1cc1n(c2=O)Cc2cc3cc(N)ccc3nc2-1"
A: 3.15 µM

Q: Next molecule: COC(=O)C1=C(CS(=O)c2ccccc2[N+](=O)[O-])ON(C)C1c1ccccc1 (stereo unspecified)
A: > 100 µM

Q: Next molecule: "CCOC(=O)C(=O)Nc1c(C(C)C)cccc1C(C)C"
A: > 100 µM

Q: Next molecule: "NCCCCNCCCNC(=O)c1nc(-c2csc(CCN)n2)sc1Cl"
A: 45.6 µM

Q: Next molecule: C=C1C(=O)OC2/C=C(\C=O)CC/C=C(\C)C(O)C[C@@H]12 (stereo partly specified)
A: 13.6 µM
